// provenance: patent US20100279930A1

# measurementTarget: human Y4 receptor (human, UniProt P50391 1-375)
# Sequence (P50391 whole entry): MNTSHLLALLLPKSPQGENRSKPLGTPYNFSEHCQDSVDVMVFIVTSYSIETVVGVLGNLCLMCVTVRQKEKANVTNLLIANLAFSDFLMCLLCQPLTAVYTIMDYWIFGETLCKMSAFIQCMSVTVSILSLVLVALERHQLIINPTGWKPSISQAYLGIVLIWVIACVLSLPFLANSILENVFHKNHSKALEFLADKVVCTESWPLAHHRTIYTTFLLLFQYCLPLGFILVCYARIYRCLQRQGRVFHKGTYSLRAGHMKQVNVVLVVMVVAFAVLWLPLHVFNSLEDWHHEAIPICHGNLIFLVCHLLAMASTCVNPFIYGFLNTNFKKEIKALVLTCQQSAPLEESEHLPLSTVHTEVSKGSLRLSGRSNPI
# testDetails: 125I-PP displacement
For each entry below, report its IC50 value.
Answers are plain numbers, in nM.

Some solved entries appear below for comparison.
binder | unitOfMeasurement | reportedMeasurement
GAPLEPTYPGDNATPEQLAKYYSELRRYIDKLTRPRY [4060606] | nM | 0.131
GAPLEPTYPGDDATPEQLAKYAAELRRYINHLTRPRY [4060308] | nM | 0.117
AAPLEPTYPGDNATPEQMARYAAALRRYIDKLTRPRY [4060695] | nM | 0.091
GAPLEPEYPGDNATPEQKAKYAAALRRYIDKLTRPRY [4060601] | nM | 0.088
PAPLEPTYPGDNATPEQLAKYYSELRRYINRLTRPRY [4060277] | nM | 0.076
GAPLEPEYPGDNATPEQKAKYAAALRRYINRLTRPRY [4060301] | nM | 0.036
GAPLEPTYPGDNATPEELAKYYSELRRYINKLTRPRY [4060315] | nM | 0.097
GAPLEPTYPGDDATPEQLAKYYSELRRYINKLTRPRY [4060313] | nM | 0.097

Can you give me IC50 for all of these, one by one?
1. GAPLEPEAPGDNATPEQMAKYYSELRRYIDKLTRPRY [4060693]
2. GAPLEPTYPGDNATPEQLAKYYSELRRYINRLTRPRY [4060276]
3. GAPLEPVYPGDNATPEQKAKYAAELRRYIDKLTRPRY [4061084]
4. YAPLEPEAPGDDATPQQKARYAAELRRYINKLTRPRY [4060681]
5. PAPLEPHYPGDNATPEEMAKYYSELRRYIDKLTRPRY [4060895]
6. PAPLEPKYPGDNATPEEMAKYYSELRRYIDKLTRPRY [4060894]
7. PAPLEPVYPGDNATPEQKAKYAAELRRYIDHLTRPRY [4061087]
8. GAPLEPEYPGDDATPEQKARYAAALRRYINKLTRPRY [4060311]

// result
1: 0.172; 2: 0.073; 3: 0.174; 4: 0.136; 5: 0.121; 6: 0.126; 7: 0.218; 8: 0.099

Can you give me IC50 for all of these, one by one?
1. PAPLEPTYPGDNATPEELAKYYSELRRYINKLTRPRY [4060316]
2. PAPLEPKYPGDNATPEQMAKYYSELRRYIDHLTRPRY [4060602]
3. PAPLEPEYPGDNATPEQKAKYAAALRRYINHLTRPRY [4060275]
4. PAPLEPHYPGDNATPEEMAKYAAELRRYIDKLTRPRY [4060687]

// result
1: 0.101; 2: 0.173; 3: 0.106; 4: 0.171
